TARGET_ENTITY: T1, Soluble heterodimeric CD3 protein (hCD3-epsilon/hCD3-delta) with either a human Fc tag (hFcΔAdp/hFc) or a … (human, UniProt P07766 23-126; P04234 22-105)
T1 construct: also called hCD3ε/δ; not shown: Fc tag: human (hFcΔAdp/hFc)
RUN_DESCRIPTION: SPR Biacore 25C antigen-capture
Method: Measurements were conducted on a T200 Biacore™ instrument. In the antigen-capture format, heterodimeric CD3 protein was captured using a rabbit anti-mouse Fc or mouse anti-human Fc and the respective antibodies were injected over the captured antigen. Kinetic association (kₐ) and dissociation (kd) rate constants were determined by processing and fitting the data to a 1:1 binding model using Scrubber 2.0 curve fitting software. […]
Entries annotated with measured T½
Express your answer in min, writing the number without its unit.

Worked examples follow.
Respond only with T½ recorded for H1M2692N (antibody, mouse IgG1, V domains shown, H1M: mouse IgG1 Fc, human variable regions; divalent) VH: EVQLVESGGGLVQPGGSLRLSCAASGFSFDDYTMHWVRQPPGKGLEWVSGISWNSGSIGYADSVKGRFTISRDNAKNSLYLQMNSLRAGDTALYYCAKDNSGYGYYYYYGMDVWGQGTTVTVSS VL: EIVMTQSPATLSVSPGERATLSCRASQSVSSNLAWYQQKPGQAPRLLIYGASTRATGIPARFSGSGSGTEFTLTISSLQSEDFAVYYCQQYYNWPLTFGGGTKVEIK
1170

Respond only with T½ recorded for H1H5771P (antibody, human IgG1, V domains shown, H1H: human IgG1 Fc; divalent) VH: EVQLVESGGGLVQPGRSLRLSCAASGFSFDNYAMHWVRQAPGQGLEWVSGISWNSGSRDYADSVKGRFTISRDNARNSLFLQMNSLSNEDTAMYYCAKDKSGYGSYFYGMDVWGQGTTVTVSS VL: EIVLTQSPGTLSLSPGDRATLSCRASQSIRNIYLAWYQQKPGQAPRLLIHGASTRATGIPDRFSGSGSGTDFTLTISRLEPEDFAVYYCQQRVSLPYTFGQGTKLEIK
34

Respond only with T½ recorded for H1H5791B (antibody, human IgG1, V domains shown, H1H: human IgG1 Fc; divalent) VH: QVQLVESGAEVKKPGASVKVSCKTSGYTLSGYYMHWMRQAPGQGLEWMGWINPKSGVTNYAQKFQDRVAMTRDTSISTAYMELSRLRSDDTAVYYCARMGDGAVFDFWAQGTLVTVSS VL: DIQLTQSPSSLSASVGDRVTITCRASQRISSFLNWYQQKPGKAPKLLIYTASNLQNGVPSRFSGSGSGTDFTLTISSLQPEDFATYYCQQSYRTPLTFGGGTKLEIKR
34

Respond only with T½ recorded for H1H5778P (antibody, human IgG1, V domains shown, H1H: human IgG1 Fc; divalent) VH: EVQLVESGGGLVQPGRSLRLSCVASGFTFADFTMHWVRQAPGKGLEWVSGISWNSNSIDYADSVKGRFTISRDNAKKSLFLQMSSLRAEDTALYYCVKDRSGYSRFYYGMDVWGQGTTVTVSS VL: EIVMTQSPATLSVSPGERAILSCRASQNINSNLAWYQQKPGQAPRLLIYGASTRATGVPARFSGSGSGTEFTLTIRSLQSEDFAVYYCQQYYNWPITFGHGTRLEIK
338

New cases:
Respond only with T½ recorded for H2M3540N (antibody, mouse IgG2, V domains shown, H2M: mouse IgG2 Fc, human variable regions; divalent) VH: QVHLEESGGGVVQPGRSLRLSCSASGFTFSSYAMHWVRQAPGKGLEWVAVIWYDGTNKYYLDSVKGRFTISRDNSKNTLFLQMNSLRAEDTAVYYCARDRGSIITHWGQGTLVTVSS VL: DIQMTQSPSSLSASIGDRVTITCRASQNISSYLNWYQQKPGKAPKLLIYAASSLQSGVPSRFSGSGSGTDFTLTISSLQPEDFATYYCQQTYSTPPITFGQGTRLEIK
20
